Test system: HGC-27
MEASUREMENT PROTOCOL: Cell panel screen (CellTiter-Glo)
Type: cell-based, human
DETAILS: Homo sapiens; HGC-27 (Stomach), 20 micromolar, 72 hrs; read-out: Percent Inhibition
inhibition at 20 µM by entry:
Please state the figure in %; there is no need to write the unit.

Some compounds with recorded inhibition at 20 µM:
Inquiry: // query inhibition at 20 µM value for entry CC(C)=CCC[C@@]1(C)C=Cc2c(O)c3c(c(C/C=C(\C)CO)c2O1)O[C@]12C(=C[C@@H]4C[C@H]1C(C)(C)O[C@@]2(C/C=C(/C)C(=O)O)C4=O)C3=O [GB40, 35-hydroxyepigambogic acid]
Reply text: 99

Inquiry: Moving on to the next compound: CC(C)=CCc1c(O)cc2oc3c(CC=C(C)C)c(O)c(O)c(CC=C(C)C)c3c(=O)c2c1O
Reply text: 99

Inquiry: Moving on to the next compound: CC(C)=CCC/C(C)=C/Cc1c(O)c(CC=C(C)C)c2c(c1O)C(=O)C1=C[C@@H]3C[C@H]4C(C)(C)O[C@@](C/C=C(\C)C(=O)O)(C3=O)[C@@]14O2
Reply text: 99

Inquiry: Moving on to the next compound: CC(C)=CCC/C(C)=C/Cc1c(O)c(CC=C(C)C)c2c(c1O)C(=O)C1=C[C@@H]3C[C@H]4C(C)(C)O[C@@](C/C=C(\C)C=O)(C3=O)[C@@]14O2
Reply text: 98

Then there is this compound:
Inquiry: // query inhibition at 20 µM value for entry CC(C)=CCC[C@@]1(C)C=Cc2c(O)c3c(c(CCC(C)(C)O)c2O1)O[C@]12C(=C[C@@H]4C[C@H]1C(C)(C)O[C@@]2(C/C=C(/C)C(=O)O)C4=O)C3=O [GB39, 33-hydroxyepigambogic acid]
Reply text: 100

* * *

Tested on: J82
MEASUREMENT PROTOCOL: Cell panel screen (CellTiter-Glo)
Type: cell-based, human
DETAILS: J82 (Urinary bladder), 20 micromolar, 72 hrs
Percent Inhibition by entry:
Please state the figure in %; there is no need to write the unit.

Inquiry: // query Percent Inhibition value for entry CC(C)=CCc1c2c(c(O)c3c1O[C@]14C(=C[C@@H]5C[C@H]1C(C)(C)O[C@@]4(C/C=C(\C)CO)C5=O)C3=O)C=CC(C)(C)O2 [GB18]
Reply text: 99

Continuing:
Inquiry: // query Percent Inhibition value for entry CC(C)=CCC/C(C)=C/Cc1c(O)c(CC=C(C)C)c2c(c1O)C(=O)C1=C[C@@H]3C[C@H]4C(C)(C)O[C@@](C/C=C(/C)C(=O)O)(C3=O)[C@@]14O2 [GB16]
Reply text: 99

Inquiry: Moving on to the next compound: CC(C)=CCCC1(C)C=Cc2c(O)c3c(c(CC=C(C)C)c2O1)OC12C(=CC4CC1C(C)(C)OC2(CC=C(C)C(=O)O)C4=O)C3=O (mixture of isomers) [GB8]
Reply text: 99

Inquiry: Moving on to the next compound: COc1cc(O)c2c(=O)c3c(CC=C(C)C)cc(O)c(O)c3oc2c1CC=C(C)CCC=C(C)C [Go-23]
Reply text: 97

Inquiry: Moving on to the next compound: COc1cc(O)c2c(=O)c3cc4c(c(O)c3oc2c1CC=C(C)C)OC(C)(C)C=C4 [gl-12]
Reply text: 17

Inquiry: Moving on to the next compound: CC1(C)C=Cc2c(cc(O)c3c(=O)c4cc5c(c(O)c4oc23)OC(C)(C)C=C5)O1 [Go-16]
Reply text: 23

Inquiry: Moving on to the next compound: COc1c(CC=C(C)C)c(O)c2c(=O)c3ccc(O)c(O)c3oc2c1CC=C(C)C [gl-9]
Reply text: 99
